# System: Hek293T
# experiment: Primary qHTS to identify gynecologic anti-cancer compounds using libraries of approved drugs and bioactive compounds (AID 1345084); further: nearly all actives have a fitted effect of over 55% in size
# experimental_parameters: Gynecologic cancer cell panel viability, ATPlite luminescence, 48 h, control line for the selectivity index; series mostly up to 57.5 µM
Results filed as inconclusive are left out. Activity calls are given as the source filed them. The call rests on the fitted dose curve; in most records, active means well fitted cell-killing curve with a large enough effect; inconclusive means small, poorly fitted or top-dose-only effect, or effect the other way; inactive means flat fitted curve, though single readings scatter.
Assign a class; possible classes are active, inactive

CN1C(C(=O)Nc2ccccn2)=C(O)c2sccc2S1(=O)=O | inactive
S=c1nc[nH]c2nc[nH]c12 | active
Cc1cc2cc3c(C)cc(=O)oc3c(C)c2o1 | inactive
CS(=O)(=O)OCCCCOS(C)(=O)=O | inactive
COc1cc2c(N3CCN(C(=O)Nc4ccc(OC(C)C)cc4)CC3)ncnc2cc1OCCCN1CCCCC1 | inactive

As a next step, examine the compound that follows.
-- ask Record lookup: outcome of this test for "CCN(CC)CCOc1ccc(Cc2ccccc2)cc1" ?
-- reply inactive

Attribution: PubChem BioAssay (NCATS)
